Target: UniProt:P08909
pKi: −log10 of the molar value.

Compound	Sign Qualifier	pKi
c1ccc(CCN2CCC(=C(c3ccccc3)c3ccccc3)CC2)cc1	=	7.54
OC(c1ccccc1)C1CCN(CCCCc2ccccc2)CC1 (stereo not drawn)	<	5.00
c1ccc(CCCCN2CCC(Cc3ccccc3)CC2)cc1	=	5.39
OC(c1ccccc1)C1CCN(CCc2ccccc2)CC1 (stereo not drawn) [GLEMANSERIN]	=	6.08
c1ccc(CCCCN2CCN(Cc3ccccc3)CC2)cc1	<	5.00
O=C(c1ccccc1)C1CCN(CCc2ccccc2)CC1	=	6.10
c1ccc(CCCCN2CCC(=C(c3ccccc3)c3ccccc3)CC2)cc1	=	6.66
O=c1[nH]c2ccccc2c(=O)n1CCN1CCC(C(c2ccccc2)c2ccccc2)CC1	=	7.28
OC(c1ccc(F)cc1)C1CCN(CCc2ccccc2)CC1 (stereo not drawn)	=	5.82
O=C(c1ccccc1)N1CCN(CCCCc2ccccc2)CC1	=	5.07
CN1CCN(C(=O)c2ccccc2)CC1	<	5.00
O=C(c1ccccc1)C1CCN(CCCCc2ccccc2)CC1	=	5.62
Fc1ccc(CC2CCN(CCc3ccccc3)CC2)cc1	=	5.70

---

Target: Serotonin receptor 2a and 2c (5HT2A and 5HT2C) (Rattus norvegicus) (UniProt P08909+P14842)
Sequence (P08909 whole entry, looked up): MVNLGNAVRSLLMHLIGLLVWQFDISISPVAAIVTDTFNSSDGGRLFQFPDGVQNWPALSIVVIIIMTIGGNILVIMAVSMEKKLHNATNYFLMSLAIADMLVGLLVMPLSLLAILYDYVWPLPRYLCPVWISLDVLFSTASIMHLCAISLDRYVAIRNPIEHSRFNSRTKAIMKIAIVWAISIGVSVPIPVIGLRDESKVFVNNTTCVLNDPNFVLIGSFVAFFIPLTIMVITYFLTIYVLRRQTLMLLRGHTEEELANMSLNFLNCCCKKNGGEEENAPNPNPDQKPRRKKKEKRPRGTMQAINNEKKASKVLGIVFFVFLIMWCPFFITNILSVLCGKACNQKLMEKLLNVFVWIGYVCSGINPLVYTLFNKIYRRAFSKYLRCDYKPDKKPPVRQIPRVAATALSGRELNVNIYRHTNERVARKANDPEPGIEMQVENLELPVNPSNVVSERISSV
Sequence (P14842 whole entry, looked up): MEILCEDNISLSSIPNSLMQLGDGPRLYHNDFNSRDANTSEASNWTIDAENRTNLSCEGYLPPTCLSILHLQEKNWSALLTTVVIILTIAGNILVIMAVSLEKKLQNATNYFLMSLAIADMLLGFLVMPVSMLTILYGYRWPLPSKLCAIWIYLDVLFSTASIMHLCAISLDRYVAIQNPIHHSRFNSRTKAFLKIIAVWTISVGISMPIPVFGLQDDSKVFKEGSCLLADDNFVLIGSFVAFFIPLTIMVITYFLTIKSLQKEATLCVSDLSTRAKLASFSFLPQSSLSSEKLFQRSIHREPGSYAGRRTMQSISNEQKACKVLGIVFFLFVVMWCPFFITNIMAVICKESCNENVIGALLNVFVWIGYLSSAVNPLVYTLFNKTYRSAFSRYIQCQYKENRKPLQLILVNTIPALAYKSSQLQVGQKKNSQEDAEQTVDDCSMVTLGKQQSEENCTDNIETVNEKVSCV
Assay: Selectivity as the ratio of Ki value towards 5-hydroxytryptamine 2C receptor to that of 5-hydroxytryptamine 2A receptor
Format: protein assay
Note to self: class = bucket of Selectivity, per lower (below 20), middle (20 to below 80), upper (80 or more)

Compound	Class
O=c1[nH]c2ccccc2c(=O)n1CCN1CCN(C(c2ccccc2)c2ccccc2)CC1	lower
Fc1ccc(CC2CCN(CCc3ccccc3)CC2)cc1	upper
c1ccc(CCCCN2CCC(Cc3ccccc3)CC2)cc1	middle
O=C(c1ccc(F)cc1)C1CCN(CCc2ccccc2)CC1	lower
c1ccc(CCN2CCC(=C(c3ccccc3)c3ccccc3)CC2)cc1	lower
C(/Cc1ccccc1)=C(\c1ccccc1)C1CCN(CCCCc2ccccc2)CC1	lower
OC(c1ccccc1)C1CCN(CCc2ccccc2)CC1 (stereo unspecified)	upper
O=C(c1ccccc1)N1CCN(CCCCc2ccccc2)CC1	middle
O=C(c1ccccc1)C1CCN(CCc2ccccc2)CC1	upper
OC(c1ccc(F)cc1)C1CCN(CCc2ccccc2)CC1 (stereo unspecified)	upper

---

Target: Serotonin receptor 2a and 2c (5HT2A and 5HT2C) (Rattus norvegicus) (UniProt P08909+P14842)
Experiment: Selectivity as the ratio of Ki value towards 5-hydroxytryptamine 2C receptor to that of 5-hydroxytryptamine 2A receptor
Format: protein assay
Result Type: Selectivity

Compound	Result Type	Sign Qualifier	Measured Value
OC(c1ccccc1)C1CCN(CCCCc2ccccc2)CC1 (configuration not stated)	Selectivity	>	35
OC(c1ccc(F)cc1)C1CCN(CCCCc2ccccc2)CC1 (configuration not stated)	Selectivity	=	52
O=C(c1ccccc1)C1CCN(CCCCc2ccccc2)CC1	Selectivity	=	240
O=C(c1ccc(F)cc1)C1CCN(CCCCc2ccccc2)CC1	Selectivity	=	120
O=c1[nH]c2ccccc2c(=O)n1CCN1CCC(C(c2ccccc2)c2ccccc2)CC1	Selectivity	=	3
Fc1ccc(CC2CCN(CCCCc3ccccc3)CC2)cc1	Selectivity	=	70
CN1CCC(C(=O)c2ccccc2)CC1	Selectivity	>	16

---

Biological target: 5-hydroxytryptamine receptor 2A (Rattus norvegicus, UniProt P14842)
Threshold check on Ki: strictly below 8 nM is TRUE; on or above 8 nM is FALSE.

Compound	Assayed Target	Class
CN1CCN(C(=O)c2ccccc2)CC1	5-hydroxytryptamine receptor 2A (Rattus norvegicus, UniProt P14842)	FALSE
OC(c1ccccc1)C1CCN(CCc2ccccc2)CC1 (stereo unspecified)	5-hydroxytryptamine receptor 2A (Rattus norvegicus, UniProt P14842)	TRUE
c1ccc(CCN2CCC(=C(c3ccccc3)c3ccccc3)CC2)cc1	5-hydroxytryptamine receptor 2A (Rattus norvegicus, UniProt P14842)	TRUE
O=C(c1ccc(F)cc1)C1CCN(CCc2ccccc2)CC1	5-hydroxytryptamine receptor 2A (Rattus norvegicus, UniProt P14842)	FALSE
O=c1[nH]c2ccccc2c(=O)n1CCN1CCN(C(c2ccccc2)c2ccccc2)CC1	5-hydroxytryptamine receptor 2A (Rattus norvegicus, UniProt P14842)	FALSE
Fc1ccc(CC2CCN(CCc3ccccc3)CC2)cc1	5-hydroxytryptamine receptor 2A (Rattus norvegicus, UniProt P14842)	FALSE
